Sequence of the target: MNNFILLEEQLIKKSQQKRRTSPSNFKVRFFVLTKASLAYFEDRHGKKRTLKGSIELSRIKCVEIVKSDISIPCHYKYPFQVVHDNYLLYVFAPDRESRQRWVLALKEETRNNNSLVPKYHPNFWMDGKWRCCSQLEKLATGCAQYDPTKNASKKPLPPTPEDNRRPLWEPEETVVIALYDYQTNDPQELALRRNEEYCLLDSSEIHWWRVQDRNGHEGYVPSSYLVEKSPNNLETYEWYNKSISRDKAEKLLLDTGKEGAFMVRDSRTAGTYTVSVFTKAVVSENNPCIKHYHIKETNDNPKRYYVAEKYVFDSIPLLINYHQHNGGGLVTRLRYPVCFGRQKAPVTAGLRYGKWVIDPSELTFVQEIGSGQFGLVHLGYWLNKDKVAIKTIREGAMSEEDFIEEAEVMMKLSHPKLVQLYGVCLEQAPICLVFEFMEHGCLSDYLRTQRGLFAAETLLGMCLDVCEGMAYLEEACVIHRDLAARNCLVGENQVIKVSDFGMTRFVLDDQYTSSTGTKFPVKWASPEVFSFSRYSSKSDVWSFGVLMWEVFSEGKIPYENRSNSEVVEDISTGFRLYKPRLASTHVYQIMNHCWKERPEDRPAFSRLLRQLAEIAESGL
pKi: −log10 of the molar value.
endpoint-label: pKi

CC[C@@H](c1ccccc1)n1cc(NC(=O)c2n[nH]c3c2C2CC2CC3)cn1 (single isomer, unassigned) [Example 25a] :: 8.77
CC1(C)CCc2c(C(=O)Nc3cnn(C(c4cccc(S(C)(=O)=O)c4)C4CCOC4)c3)n[nH]c2C1 (single isomer, unassigned) [Example 126c] :: 8.40
CC1CC(C(c2ccccc2)n2cc(NC(=O)c3n[nH]c4c3CCC(C)(C)C4)cn2)CCS1(=O)=O (single isomer, unassigned) [Example 139f] :: 9.22
CC[C@@H](c1ccccc1)n1cc(NC(=O)c2n[nH]c3c2C2CC2CC3)cn1 (single isomer, unassigned) [Example 25b] :: 7.03

A. C#CC1(C)CCc2c(C(=O)Nc3cnn(Cc4ccccc4)c3)n[nH]c2C1 (single isomer, unassigned) [Example 130b]
B. CC1(C)Cc2[nH]nc(C(=O)Nc3cnn(C(c4ccccc4)C4CCS(=O)(=O)CC4)c3)c2C1 (single isomer, unassigned) [Example 94a]
Please tell me which of the two, A or B , has the higher reported pKi value. Please reply using the label of the selected record.
B
(B: 9.52, A: 8.70)
